Entry source: PubChem BioAssay (NCI)

What TGI was measured for each of the following?
Test system: RPMI-8226 leukemia
test_description: NCI tumour cell line growth inhibition, 48 h

I am curious: what TGI value has been reported for COc1cc2c(/C=C3\C(=O)N(C)c4ccc(O)cc43)c[nH]c2cc1C ?
17.2 µM

So what does the record say about TGI for CCOC(=O)Nc1cc(NC(/C=N/NC(C)=O)C(=O)OCC)c(OC)cc1NC(C)=O (stereo not given) ?
> 100 µM

For CCCCCCCCCC(CCCC(O)CC(=O)O)OC1OC(COC2OC(C)C(O)C(O)C2O)C(O)C(O)C1OC1OC(CO)C(O)C(O)C1OC1OC(C)C(OC(=O)CC(C)C)C(O)C1O (stereo not given) , what is its reported TGI?
> 60 µM

Entry CCOc1ccccc1N1C(=O)C(=O)C(c2nc3ccccc3s2)C(=O)C1=O : reported TGI = ?
> 100 µM

What value of measured TGI is listed for CC(NC(=O)OC(C)(C)C)C(=O)NC(Cc1ccccc1)C(=O)NCC(=O)ON=C1CCCC1 (stereo not given) ?
> 100 µM

# input molecule: Cc1cc2nc(N3C(=O)/C(=C/c4ccc(Oc5ccccc5)cc4)N=C3c3ccccc3)sc2cc1C ; wanted: its TGI
86.8 µM

Which TGI value is on record for O=S(=O)(O)c1cc(N=Nc2cccc3ccccc23)c(O)c2ncccc12 ?
> 100 µM

Value lookup for TGI; key = COc1cc(C2CC(c3cccc(Nc4ccnc5cc(Cl)ccc45)c3)=NN2C=O)cc(OC)c1OC (stereo not given)
> 23 µM

Name the recorded TGI for CC(=O)OC1CC(OC2C(O)CC(OC3C(O)CC(OC4CCC5(C)C(CCC6C5CCC5(C)C(C7=CC(=O)OC7)C(O)CC65O)C4)OC3C)OC2C)OC(C)C1OC1OC(CO)C(O)C(O)C1O (stereo not given) .
5.7 µM

# lookup: TGI of COc1ccc2c(C)cc(C)nc2n1
> 100 µM

Any idea what its TGI is? The molecule is Cc1ccc(NC(=O)c2cc(S(=O)(=O)Nc3n[nH]c(=O)n3-c3ccccc3)c(S)cc2Cl)cc1
> 100 µM

Param item = Nc1cccc(CCN2CCN(CCCc3ccccc3)CC2)c1 ; retrieve measured TGI.
> 100 µM

Consider the molecule CCOP(=O)(OCC)C1CC(C)OC1=O (stereo not given) and give its measured TGI.
> 100 µM

Please report the recorded TGI for O=C(NCc1ccccc1)c1cc2ccc(O)c(O)c2cn1 .
> 100 µM

Looking for the measured TGI of OC/C=C/[C@H](OCc1ccccc1)[C@H](/C=C/CO)OCc1ccccc1 , can you help?
42.8 µM

Suppose we examine the molecule Nc1nc(Cl)nc(NCc2ccccc2)n1 ; what TGI value has been reported?
> 100 µM

Would you mind telling me what TGI value was observed for O=C1C=CC=C[C@@H]2C(C3OCCO3)CC[C@H]12.[C-]#[O+].[C-]#[O+].[C-]#[O+].[Fe] (stereo not given in full) ?
> 82.4 µM

Which measured TGI value corresponds to N#Cc1c(N2CCCC2)ncn(-c2ccccc2)c1=S ?
> 100 µM

Look up TGI: N#CSCc1nc2ccc(Cl)cc2c(-c2ccccc2)[n+]1[O-]
54.4 µM

Item under review: COc1c2c(cc3occ(-c4ccc(CC=C(C)C)cc4)c(=O)c13)OC(C)(C)C=C2 . Reported TGI?
50.3 µM
